These data points were gathered from ChEMBL document CHEMBL1145262.

Catalogue of compounds with associated IC50
Target: Gamma-secretase
Test: In vitro inhibition of gamma-secretase as amyloid peptide production in SH-SY5Y cells
Assay Metric: IC50 (nM)

[[record]]
compound = "CC(CCO)C(c1cc(F)ccc1F)S(=O)(=O)c1ccc(Cl)cc1 (stereo unspecified)"
tested_system = "Gamma-secretase"
assay_metric = "IC50"
readout_relation = "="
endpoint_result = 35

[[record]]
compound = "CC(C)C(c1cc(F)ccc1F)S(=O)(=O)c1ccc(Cl)cc1 (stereo unspecified)"
tested_system = "Gamma-secretase"
assay_metric = "IC50"
readout_relation = "="
endpoint_result = 70

[[record]]
compound = "O=S(=O)(c1ccc(Cl)cc1)C1(c2cccc(F)c2)CCCCC1"
tested_system = "Gamma-secretase"
assay_metric = "IC50"
readout_relation = "="
endpoint_result = 249

[[record]]
compound = "CN(c1cc(F)ccc1F)S(=O)(=O)c1ccc(Cl)cc1"
tested_system = "Gamma-secretase"
assay_metric = "IC50"
readout_relation = "="
endpoint_result = 1900

[[record]]
compound = "O=S(=O)(c1ccccc1)C1(c2cc(F)ccc2F)CCCCC1"
tested_system = "Gamma-secretase"
assay_metric = "IC50"
readout_relation = "="
endpoint_result = 98

[[record]]
compound = "CC(c1cc(F)ccc1F)S(=O)(=O)c1ccc(Cl)cc1 (stereo unspecified)"
tested_system = "Gamma-secretase"
assay_metric = "IC50"
readout_relation = "="
endpoint_result = 2470

[[record]]
compound = "COC(=O)C1CC(c2cc(F)ccc2F)(S(=O)(=O)c2ccc(Cl)cc2)CCC1=O (stereo unspecified)"
tested_system = "Gamma-secretase"
assay_metric = "IC50"
readout_relation = "="
endpoint_result = 104

[[record]]
compound = "O=S(=O)(Nc1cc(F)ccc1F)c1ccc(Cl)cc1"
tested_system = "Gamma-secretase"
assay_metric = "IC50"
readout_relation = ">"
endpoint_result = 10000

[[record]]
compound = "O=S(=O)(c1ccc(Cl)cc1)C1(c2cc(F)ccc2F)CC2CCC(C2)C1 (stereo in doubt; 19)"
tested_system = "Gamma-secretase"
assay_metric = "IC50"
readout_relation = "="
endpoint_result = 12

[[record]]
compound = "O=S(=O)(c1ccc(Cl)cc1)C1(c2cc(F)ccc2F)CC2CCC(C2)C1 (stereo in doubt; 20)"
tested_system = "Gamma-secretase"
assay_metric = "IC50"
readout_relation = "="
endpoint_result = 94

[[record]]
compound = "O=C1CCC(c2cc(F)ccc2F)(S(=O)(=O)c2ccc(Cl)cc2)CC1"
tested_system = "Gamma-secretase"
assay_metric = "IC50"
readout_relation = "="
endpoint_result = 22

